target: Factor X (FX), P00742
Sequence (P00742 whole entry, looked up): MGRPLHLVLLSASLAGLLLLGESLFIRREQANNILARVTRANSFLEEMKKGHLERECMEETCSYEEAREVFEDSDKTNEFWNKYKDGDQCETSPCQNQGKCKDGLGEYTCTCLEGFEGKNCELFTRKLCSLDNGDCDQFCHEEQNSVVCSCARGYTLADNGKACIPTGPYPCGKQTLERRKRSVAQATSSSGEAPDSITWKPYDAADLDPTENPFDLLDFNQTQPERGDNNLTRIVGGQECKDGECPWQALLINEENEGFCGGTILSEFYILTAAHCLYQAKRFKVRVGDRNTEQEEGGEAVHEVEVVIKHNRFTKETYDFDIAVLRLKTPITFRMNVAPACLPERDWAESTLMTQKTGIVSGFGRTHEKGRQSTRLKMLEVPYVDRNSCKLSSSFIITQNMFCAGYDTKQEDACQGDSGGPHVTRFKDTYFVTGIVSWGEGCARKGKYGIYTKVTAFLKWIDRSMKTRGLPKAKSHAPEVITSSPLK
Catalogue of kcat of FX activation by FIXa in the Xase complex (FVIIIa, PC/PS vesicles, Ca2+) readings, one per entry.
Provide a numeric answer, followed by its unit.

Solved entries:
FIXa-D104N/K106S/Y155F/K247N/N249S/N260S (protein) chain 1: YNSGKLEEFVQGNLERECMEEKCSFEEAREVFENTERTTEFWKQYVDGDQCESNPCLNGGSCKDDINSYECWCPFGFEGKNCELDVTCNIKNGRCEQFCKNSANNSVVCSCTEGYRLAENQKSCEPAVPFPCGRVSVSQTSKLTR chain 2: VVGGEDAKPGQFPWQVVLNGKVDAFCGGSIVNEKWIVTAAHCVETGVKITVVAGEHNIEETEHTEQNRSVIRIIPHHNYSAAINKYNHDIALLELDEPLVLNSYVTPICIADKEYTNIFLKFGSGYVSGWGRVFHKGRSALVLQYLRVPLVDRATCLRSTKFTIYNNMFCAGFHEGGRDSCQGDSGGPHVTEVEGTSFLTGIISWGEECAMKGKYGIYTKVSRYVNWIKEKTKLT	0.5 s⁻¹
FIXa-R318Y/R338E/T343R/N346D/R403E/E410N (protein) chain 1: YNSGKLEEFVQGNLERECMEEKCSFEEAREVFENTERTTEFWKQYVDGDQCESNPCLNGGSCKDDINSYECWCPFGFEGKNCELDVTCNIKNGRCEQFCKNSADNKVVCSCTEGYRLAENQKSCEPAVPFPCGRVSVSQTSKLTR chain 2: VVGGEDAKPGQFPWQVVLNGKVDAFCGGSIVNEKWIVTAAHCVETGVKITVVAGEHNIEETEHTEQKRNVIRIIPHHNYNAAINKYNHDIALLELDEPLVLNSYVTPICIADKEYTNIFLKFGSGYVSGWGRVFHKGYSALVLQYLRVPLVDRATCLESTKFRIYDNMFCAGFHEGGRDSCQGDSGGPHVTEVEGTSFLTGIISWGEECAMKGKYGIYTKVSEYVNWIKNKTKLT	5.4 s⁻¹
FIXa-K247N/N249S/R318Y/R338E/R403E (protein) chain 1: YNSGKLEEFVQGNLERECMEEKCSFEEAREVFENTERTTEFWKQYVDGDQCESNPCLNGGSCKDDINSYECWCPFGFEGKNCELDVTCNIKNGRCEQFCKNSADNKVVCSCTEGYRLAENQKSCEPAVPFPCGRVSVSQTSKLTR chain 2: VVGGEDAKPGQFPWQVVLNGKVDAFCGGSIVNEKWIVTAAHCVETGVKITVVAGEHNIEETEHTEQNRSVIRIIPHHNYNAAINKYNHDIALLELDEPLVLNSYVTPICIADKEYTNIFLKFGSGYVSGWGRVFHKGYSALVLQYLRVPLVDRATCLESTKFTIYNNMFCAGFHEGGRDSCQGDSGGPHVTEVEGTSFLTGIISWGEECAMKGKYGIYTKVSEYVNWIKEKTKLT	10.5 s⁻¹

Task: What value of kcat of FX activation by FIXa in the Xase complex (FVIIIa, PC/PS vesicles, Ca2+) has been reported for the following protein? FIXa-R318Y/R338E/N346Y/R403E/E410N (protein) chain 1: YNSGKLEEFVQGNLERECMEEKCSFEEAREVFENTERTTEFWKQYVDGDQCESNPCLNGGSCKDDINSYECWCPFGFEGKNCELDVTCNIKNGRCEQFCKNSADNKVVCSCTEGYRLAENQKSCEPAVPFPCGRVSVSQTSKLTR chain 2: VVGGEDAKPGQFPWQVVLNGKVDAFCGGSIVNEKWIVTAAHCVETGVKITVVAGEHNIEETEHTEQKRNVIRIIPHHNYNAAINKYNHDIALLELDEPLVLNSYVTPICIADKEYTNIFLKFGSGYVSGWGRVFHKGYSALVLQYLRVPLVDRATCLESTKFTIYYNMFCAGFHEGGRDSCQGDSGGPHVTEVEGTSFLTGIISWGEECAMKGKYGIYTKVSEYVNWIKNKTKLT
Output: 3.4 s⁻¹

Task: What value of kcat of FX activation by FIXa in the Xase complex (FVIIIa, PC/PS vesicles, Ca2+) has been reported for the following protein? FIXa-N260S/R318Y/R338E/T343R/R403E/E410N (protein) chain 1: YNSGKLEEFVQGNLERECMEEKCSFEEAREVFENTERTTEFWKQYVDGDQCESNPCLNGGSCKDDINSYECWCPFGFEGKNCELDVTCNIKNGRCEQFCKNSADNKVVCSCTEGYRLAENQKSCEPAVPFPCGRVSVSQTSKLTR chain 2: VVGGEDAKPGQFPWQVVLNGKVDAFCGGSIVNEKWIVTAAHCVETGVKITVVAGEHNIEETEHTEQKRNVIRIIPHHNYSAAINKYNHDIALLELDEPLVLNSYVTPICIADKEYTNIFLKFGSGYVSGWGRVFHKGYSALVLQYLRVPLVDRATCLESTKFRIYNNMFCAGFHEGGRDSCQGDSGGPHVTEVEGTSFLTGIISWGEECAMKGKYGIYTKVSEYVNWIKNKTKLT
Output: 8.9 s⁻¹

Task: What value of kcat of FX activation by FIXa in the Xase complex (FVIIIa, PC/PS vesicles, Ca2+) has been reported for the following protein? FIXa-R318Y/R338E/Y345A/N346D/R403E/E410N (protein) chain 1: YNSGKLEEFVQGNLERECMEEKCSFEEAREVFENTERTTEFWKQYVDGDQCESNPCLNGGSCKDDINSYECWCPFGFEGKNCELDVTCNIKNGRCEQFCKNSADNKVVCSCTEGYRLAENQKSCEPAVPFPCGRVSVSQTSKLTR chain 2: VVGGEDAKPGQFPWQVVLNGKVDAFCGGSIVNEKWIVTAAHCVETGVKITVVAGEHNIEETEHTEQKRNVIRIIPHHNYNAAINKYNHDIALLELDEPLVLNSYVTPICIADKEYTNIFLKFGSGYVSGWGRVFHKGYSALVLQYLRVPLVDRATCLESTKFTIADNMFCAGFHEGGRDSCQGDSGGPHVTEVEGTSFLTGIISWGEECAMKGKYGIYTKVSEYVNWIKNKTKLT
Output: 1.2 s⁻¹

Task: What value of kcat of FX activation by FIXa in the Xase complex (FVIIIa, PC/PS vesicles, Ca2+) has been reported for the following protein? FIXa-R318Y/R338E/T343R/R403E/E410N (protein) chain 1: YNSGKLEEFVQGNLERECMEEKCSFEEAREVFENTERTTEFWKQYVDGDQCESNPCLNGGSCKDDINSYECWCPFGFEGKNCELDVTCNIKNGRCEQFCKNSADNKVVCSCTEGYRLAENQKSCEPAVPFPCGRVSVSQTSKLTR chain 2: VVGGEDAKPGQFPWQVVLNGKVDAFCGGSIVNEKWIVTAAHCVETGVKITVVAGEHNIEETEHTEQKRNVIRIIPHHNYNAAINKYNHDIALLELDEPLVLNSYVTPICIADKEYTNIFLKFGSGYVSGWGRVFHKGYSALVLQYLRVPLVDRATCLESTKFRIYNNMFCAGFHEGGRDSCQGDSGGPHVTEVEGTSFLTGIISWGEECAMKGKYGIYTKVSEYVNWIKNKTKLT
Output: 9.7 s⁻¹
